experiment: The drug is tested on Escherichia coli strain: BW25113 for biotransformation. The drug concentrations were measured before and after a 12-h incubation by liquid-chromatography-coupled mass spectrometry (LC–MS); settings: 2 µM
reported_endpoint: Bacterial Biotransformation

Examples from the recorded data:
N#Cc1ccc(C(c2ccc(C#N)cc2)n2cncn2)cc1 ... Compound NOT metabolized
CC(=O)OCC(=O)[C@@]1(OC(C)=O)[C@@H](C)C[C@H]2[C@@H]3C[C@H](F)C4=CC(=O)C=C[C@]4(C)[C@@]3(F)[C@@H](O)C[C@@]21C [DIFLORASONE DIACETATE] ... Compound metabolized
COc1ccccc1N1CCN(CC(O)COc2cccc3ccccc23)CC1 (configuration not stated) ... Compound NOT metabolized
CN1CCN2c3ccccc3Cc3ccccc3C2C1 (configuration not stated) ... Compound NOT metabolized
CC(C)NCC(O)COc1ccc(CCOCC2CC2)cc1 (configuration not stated) ... Compound NOT metabolized

Provide the reported Bacterial Biotransformation of each entry below, same order.
1. O=C1N=C([O-])NC1(c1ccccc1)c1ccccc1.[Na+] [PHENYTOIN SODIUM]
2. Cc1ccc(S(=O)(=O)NC(=O)NN2CC3CCCC3C2)cc1 (configuration not stated) [GLICLAZIDE]
3. CCN(CC)CCOCCOC(=O)C1(c2ccccc2)CCCC1.O=C(O)CC(O)(CC(=O)O)C(=O)O [CARBETAPENTANE CITRATE]
4. CNS(=O)(=O)Cc1ccc2[nH]cc(CCN(C)C)c2c1.O=C(O)CCC(=O)O [SUMATRIPTAN SUCCINATE]
5. COC1=C(OC)C(=O)C(CCCCCCCCCCO)=C(C)C1=O

Response:
1: Compound NOT metabolized; 2: Compound NOT metabolized; 3: Compound metabolized; 4: Compound NOT metabolized; 5: Compound NOT metabolized

---

assay: The drug is tested on the gut metagenome community of MV09 with ENA study accession number: PRJEB31790 and ENA sample accession number: SAMEA5537490 for biotransformation. The drug concentrations were measured over 9 timepoints collected between 0 and 24 hours of incubation by liquid-chromatography-coupled mass spectrometry (LC–MS); assay type: ADME; parameters: dose 2 uM, timepoint 0, 1, 2, 4, 6, 8, 12, 18, 24 hours; conditions: 2 µM
reported_endpoint: Bacterial Biotransformation

C#C[C@]1(OC(C)=O)CC[C@H]2[C@@H]3CCC4=CC(=O)CC[C@@H]4[C@H]3CC[C@@]21C [NORETHINDRONE ACETATE] ... Compound metabolized
CC(=O)OCC(CCn1cnc2cnc(N)nc21)COC(C)=O ... Compound metabolized
C[C@@H]1C[C@H]2[C@@H]3CCC4=CC(=O)C=C[C@]4(C)[C@@]3(F)[C@@H](O)C[C@]2(C)[C@@]1(O)C(=O)CO ... Compound metabolized

---

conditions: anaerostipes sp., 12 h, 2 µM
Description: The drug is tested on Anaerostipes sp. strain: fecal isolate for biotransformation. The drug concentrations were measured before and after a 12-h incubation by liquid-chromatography-coupled mass spectrometry (LC–MS)
reported_endpoint: Bacterial Biotransformation

Br.CN1CCC[C@@H]1Cc1c[nH]c2ccc(CCS(=O)(=O)c3ccccc3)cc12 [ELETRIPTAN HYDROBROMIDE] ... Compound NOT metabolized
CC(C)NCC(O)COc1ccc(CCOCC2CC2)cc1 (centres undefined) ... Compound NOT metabolized
O=C(O)c1cc(/N=N/c2ccc(S(=O)(=O)Nc3ccccn3)cc2)ccc1O ... Compound metabolized
O=C([O-])C[C@H](O)C[C@H](O)/C=C/c1c(C2CC2)nc2ccccc2c1-c1ccc(F)cc1.O=C([O-])C[C@H](O)C[C@H](O)/C=C/c1c(C2CC2)nc2ccccc2c1-c1ccc(F)cc1.[Ca+2] ... Compound NOT metabolized

Provide the reported Bacterial Biotransformation of each entry below, same order.
1. CCCC(=O)Nc1ccc(OCC(O)CNC(C)C)c(C(C)=O)c1 (centres undefined)
2. c1ccc2[nH]c(-c3cscn3)nc2c1
3. C[C@]12CCC(=O)C=C1[C@@H]1C[C@@H]1[C@H]1[C@@H]3[C@@H]4C[C@@H]4[C@@]4(CCC(=O)O4)[C@@]3(C)CC[C@@H]12
4. CCOc1ccc2nc(S(N)(=O)=O)sc2c1 [ETHOXZOLAMIDE]
5. Clc1ccc(Cn2c(CN3CCCC3)nc3ccccc32)cc1

Response:
["Compound NOT metabolized", "Compound NOT metabolized", "Compound NOT metabolized", "Compound metabolized", "Compound NOT metabolized"]
